Test system: T1, antibody 10 immobilized by the support 30 (FIG. 7A; antibody not identified)
T1 construct: also called the antibody 10
Protocol summary: fluorescence of labeled peptide vs peptide concentration on immobilized antibody (FIG. 7A)
No end group written: not given here.
Observation type: Kd (µM)

Binder	Result number
SYWIHWVKQRPGQGLEWIGE (also: fluorescence label in fluorescence assays, dye and place not given here, also called PEPTIDE 1) [switching binder of SEQ ID NO. 1 (H1)]	1.42
VYYCFQGSHVPFTK (also: fluorescence label in fluorescence assays, dye and place not given here, also called PEPTIDE 4) [switching binder of SEQ ID NO. 4 (L2)]	6.68
TYLEWYPQKPGQSPKLLIYK (also: fluorescence label in fluorescence assays, dye and place not given here, also called PEPTIDE 3) [switching binder of SEQ ID NO. 3 (L1)]	6.62
VYYCAREPTGTGIYFDVWGK (also: fluorescence label in fluorescence assays, dye and place not given here, also called PEPTIDE 2) [switching binder of SEQ ID NO. 2 (H2)]	19.4
